Provenance of the data: ChEMBL document CHEMBL2150993

- Tested on: CCRF-CEM
- EXPERIMENT: Growth inhibition of human CCRF-CEM cells after 48 hrs by cell counting analysis
- Type: functional
- CONDITION_LABEL: at 10 µM

{"STRUCTURE_STRING": "Cc1ccc(-c2csc(NC(=O)CCN3CCN(c4ccccc4)CC3)n2)cc1", "OPERATOR": "<", "growth inhibition (GI), %": 10}
{"STRUCTURE_STRING": "CN1CCN(CCC(=O)Nc2nc(-c3ccc(Br)cc3)cs2)CC1", "OPERATOR": "=", "growth inhibition (GI), %": 24.9}
{"STRUCTURE_STRING": "Cc1ccc(-c2csc(NC(=O)CN3CCN(C)CC3)n2)cc1", "OPERATOR": "<", "growth inhibition (GI), %": 10}
{"STRUCTURE_STRING": "Cc1ccc(-c2csc(NC(=O)CN3CCN(c4ccccc4)CC3)n2)cc1", "OPERATOR": "=", "growth inhibition (GI), %": 13.4}
{"STRUCTURE_STRING": "Cc1ccc(-c2csc(NC(=O)CCCl)n2)cc1", "OPERATOR": "=", "growth inhibition (GI), %": 88.3}
{"STRUCTURE_STRING": "O=C(CCCl)Nc1nc(-c2ccc(Cl)cc2)cs1", "OPERATOR": "=", "growth inhibition (GI), %": 88.3}
